Ki values, listed per item
- MEASUREMENT TARGET: Kappa-type opioid receptor (Homo sapiens)
- Sequence (P41145 whole entry): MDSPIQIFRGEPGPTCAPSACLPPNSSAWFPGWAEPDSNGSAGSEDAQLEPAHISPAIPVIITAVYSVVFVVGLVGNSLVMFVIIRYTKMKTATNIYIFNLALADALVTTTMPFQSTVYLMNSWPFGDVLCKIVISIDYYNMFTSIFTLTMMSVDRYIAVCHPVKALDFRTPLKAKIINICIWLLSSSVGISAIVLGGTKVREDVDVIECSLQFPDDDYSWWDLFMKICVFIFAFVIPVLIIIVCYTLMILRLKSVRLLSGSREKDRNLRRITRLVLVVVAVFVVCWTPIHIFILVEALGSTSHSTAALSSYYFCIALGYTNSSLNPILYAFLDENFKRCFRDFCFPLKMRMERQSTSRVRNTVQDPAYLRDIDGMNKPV
- TEST PROTOCOL: Binding affinity for opioid receptor type, human Opioid receptor kappa 1 expressed in membrane homogenates of COS-1 or CHO cells
- Assay type: cell-based

[
  {
    "COMPOUND": "CC(=O)N[C@@H](CCCN=C(N)N)C(=O)N[C@H](CC1CCCCC1)C(=O)N[C@@H](Cc1ccccc1)C(=O)N1[C@H](C(=O)N[C@H](CCCN=C(N)N)C(=O)N[C@H](Cc2ccc(Cl)cc2)C(N)=O)CC[C@@H]1C(C)(C)C",
    "Ki": "282 nM"
  },
  {
    "COMPOUND": "CC(=O)N[C@@H](CCCN=C(N)N)C(=O)NC(CC1CCCCC1)C(=O)NC1CC[C@H]2CCC[C@@H](C(=O)N[C@H](CCCN=C(N)N)C(=O)NC(Cc3ccc(Cl)cc3)C(N)=O)N2C1=O (stereo in doubt)",
    "Ki": "441 nM"
  }
]

====

- MEASUREMENT TARGET: Nociceptin receptor (Homo sapiens)
- TEST PROTOCOL: Binding affinity for opioid receptor like type, human Opioid receptor like 1 expressed in membrane homogenates of COS-1 or CHO cells
- Format: cell-based
- CONDITION SET: cos-1
pKi: −log10 of the molar value.
Each record here notes measured pKi.
QUANTITY NAME: pKi

[
  {
    "COMPOUND": "CC(=O)N[C@@H](CCCNC(=N)N)C(=O)N[C@H](CC1CCCCC1)C(=O)N[C@H]1CC[C@H]2CC[C@@H](C(=O)N[C@H](CCCNC(=N)N)C(=O)N[C@H](Cc3ccc(Cl)cc3)C(N)=O)N2C1=O",
    "QUANTITY NAME": "pKi",
    "RESULT VALUE": 7.36
  },
  {
    "COMPOUND": "CC(=O)N[C@@H](CCCN=C(N)N)C(=O)N[C@H](CC1CCCCC1)C(=O)N[C@H]1C[C@H]2CCC[C@@H](C(=O)N[C@H](CCCN=C(N)N)C(=O)N[C@H](Cc3ccc(Cl)cc3)C(N)=O)N2C1=O",
    "QUANTITY NAME": "pKi",
    "RESULT VALUE": 5.67
  },
  {
    "COMPOUND": "CC(=O)N[C@@H](CCCN=C(N)N)C(=O)NC(CC1CCCCC1)C(=O)N[C@H]1CC[C@@H]2SC[C@H](C(=O)N[C@H](CCCN=C(N)N)C(=O)NC(Cc3ccc(Cl)cc3)C(N)=O)N2C1=O (stereo in doubt)",
    "QUANTITY NAME": "pKi",
    "RESULT VALUE": 7.47
  }
]

====

- MEASUREMENT TARGET: Nociceptin receptor (Homo sapiens, UniProt P41146)
- Sequence (P41146 whole entry): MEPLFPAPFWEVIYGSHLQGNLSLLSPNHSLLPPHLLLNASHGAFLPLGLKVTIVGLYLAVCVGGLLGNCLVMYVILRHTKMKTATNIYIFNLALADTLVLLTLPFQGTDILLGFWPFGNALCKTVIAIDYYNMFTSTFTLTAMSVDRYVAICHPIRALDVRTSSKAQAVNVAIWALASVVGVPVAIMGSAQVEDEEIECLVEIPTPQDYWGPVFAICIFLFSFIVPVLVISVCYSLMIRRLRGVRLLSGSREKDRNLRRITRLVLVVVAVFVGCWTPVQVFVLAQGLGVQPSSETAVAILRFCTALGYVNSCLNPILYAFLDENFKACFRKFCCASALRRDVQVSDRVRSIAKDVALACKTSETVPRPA
- TEST PROTOCOL: Binding affinity for opioid receptor like type, human Opioid receptor like 1 expressed in membrane homogenates of COS-1 or CHO cells
- Assay type: cell-based
pKi: −log10 of the molar value.
QUANTITY NAME: pKi

[
  {
    "COMPOUND": "CC(=O)N[C@@H](CCCN=C(N)N)C(=O)N[C@H](CC1CCCCC1)C(=O)N[C@@H](Cc1ccccc1)C(=O)N1[C@H](C(=O)N[C@H](CCCN=C(N)N)C(=O)N[C@H](Cc2ccc(Cl)cc2)C(N)=O)CC[C@@H]1C(C)(C)C",
    "QUANTITY NAME": "pKi",
    "RESULT VALUE": 5.77
  },
  {
    "COMPOUND": "CC(=O)N[C@@H](CCCN=C(N)N)C(=O)NC(CC1CCCCC1)C(=O)NC1CC[C@H]2CCC[C@@H](C(=O)N[C@H](CCCN=C(N)N)C(=O)NC(Cc3ccc(Cl)cc3)C(N)=O)N2C1=O (stereo in doubt)",
    "QUANTITY NAME": "pKi",
    "RESULT VALUE": 7.46
  }
]
